Source of measurements: patent US20240116985A1

Items are presented alongside their recorded Solubility.
assay.overview: Solubility in PBS
Format: physicochemical
measurement.conditions: Solubility (uM)
State just the number; it will be interpreted in µM.

Previously resolved entries follow.
[[record]]
compound = "CC(=O)N1CCC[C@]12CC=CCCCC1(CCCC=CCCCOC(=O)N3CC[C@@](C(=O)N[C@@H](Cc4ccsc4)C(=O)N[C@@H](Cc4csc5ccccc45)C(=O)N[C@H](CO)[C@@H](C)O)(C3)NC(=O)[C@H](Cc3ccccc3)NC(=O)[C@H](Cc3ccccc3)NC(=O)[C@H](C)NC(=O)[C@H](C)NC(=O)[C@H](CC(=O)O)NC(=O)[C@H](CC(=O)O)NC1=O)NC(=O)[C@H](CC(C)(C)C)NC(=O)[C@H](CC(=O)O)NC2=O (stereo partly drawn)"
numeric_value = 28

[[record]]
compound = "CC(=O)N1CCC[C@]12CC=CCCCC1(CCCC=CCCCOC(=O)N3CC[C@@](C(=O)N[C@@H](Cc4ccccc4Cl)C(=O)N[C@@H](Cc4csc5ccccc45)C(=O)N[C@@H](CCC(N)=O)C(N)=O)(C3)NC(=O)[C@H](CC(N)=O)NC(=O)[C@H](Cc3ccccc3)NC(=O)[C@H](C)NC(=O)[C@H](CCCCN)NC(=O)[C@H](CN(CC(=O)O)CC(F)(F)F)NC(=O)[C@H](CC(=O)O)NC1=O)NC(=O)[C@H](CC(C)(C)C)NC(=O)[C@H](CC(=O)O)NC2=O (stereo partly drawn)"
numeric_value = 23


# evaluate next
Solubility in this record for CC(=O)N1CCC[C@]12CC=CCCCC1(CCCC=CCCCOC(=O)N3CC[C@@](C(=O)N[C@@H](Cc4ccccc4Cl)C(=O)N[C@@H](Cc4csc5ccccc45)C(=O)N[C@@H](C(N)=O)[C@H](C)O)(C3)NC(=O)[C@H](CC(C)C)NC(=O)[C@H](Cc3ccccc3)NC(=O)[C@H](C)NC(=O)[C@H](C)NC(=O)[C@H](CCC(=O)O)NC(=O)[C@H](CC(=O)O)NC1=O)NC(=O)[C@H](CC(C)(C)C)NC(=O)[C@H](CC(=O)O)NC2=O (stereo partly drawn) : 20

====

target.entity: full-length beta-Catenin (Uniprot ID P35222) (Homo sapiens, UniProt P35222)
Construct: 10 nM full-length beta-Catenin (Uniprot ID P35222)
Sequence (P35222 whole entry): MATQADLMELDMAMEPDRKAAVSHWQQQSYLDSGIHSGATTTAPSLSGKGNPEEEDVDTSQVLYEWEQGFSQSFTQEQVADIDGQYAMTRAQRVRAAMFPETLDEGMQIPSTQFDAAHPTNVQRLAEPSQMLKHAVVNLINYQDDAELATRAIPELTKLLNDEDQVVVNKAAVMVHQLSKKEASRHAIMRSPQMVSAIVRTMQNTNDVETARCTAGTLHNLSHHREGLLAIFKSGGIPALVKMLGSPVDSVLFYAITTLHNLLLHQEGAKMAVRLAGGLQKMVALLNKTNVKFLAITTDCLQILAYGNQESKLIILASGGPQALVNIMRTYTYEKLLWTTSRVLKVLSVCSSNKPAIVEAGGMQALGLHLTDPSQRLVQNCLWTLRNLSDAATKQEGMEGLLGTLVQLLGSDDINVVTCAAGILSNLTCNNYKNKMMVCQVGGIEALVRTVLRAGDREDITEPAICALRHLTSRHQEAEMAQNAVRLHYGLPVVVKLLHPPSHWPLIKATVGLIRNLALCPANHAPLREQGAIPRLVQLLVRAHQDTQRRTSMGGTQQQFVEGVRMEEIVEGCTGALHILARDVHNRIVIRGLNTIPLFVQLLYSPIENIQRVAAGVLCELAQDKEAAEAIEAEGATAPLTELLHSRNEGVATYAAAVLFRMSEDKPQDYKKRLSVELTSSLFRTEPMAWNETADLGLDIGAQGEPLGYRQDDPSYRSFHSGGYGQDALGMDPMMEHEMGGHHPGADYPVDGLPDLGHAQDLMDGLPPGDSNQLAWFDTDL
assay.overview: Fluorescence polarization IC50 (beta-catenin / 5FAM-TCF4 10-53 competition)
Format: binding
measurement.conditions: fluorescence polarization; read-out: beta-Catenin FP IC50
Items are presented alongside their recorded IC50.
State just the number; it will be interpreted in nM.

[[record]]
compound = "CC(=O)N1CCC[C@]12CC=CCCCC1(CCCC=CCCCOC(=O)N3CC[C@@](C(=O)N[C@@H](Cc4ccsc4)C(=O)N[C@@H](Cc4csc5ccccc45)C(=O)N[C@@H](CCC(N)=O)C(N)=O)(C3)NC(=O)[C@H](CC(N)=O)NC(=O)[C@H](Cc3ccccc3)NC(=O)[C@H](C)NC(=O)[C@H](CCCCNC(C)C)NC(=O)[C@H]([C@@H](C)O)NC(=O)[C@H](CC(N)=O)NC1=O)NC(=O)[C@H](CC(C)(C)C)NC(=O)[C@H](CC(=O)O)NC2=O (some centres unmarked) [I-2004]"
target_entity = "full-length beta-Catenin (Uniprot ID P35222) (Homo sapiens, UniProt P35222)"
readout_kind = "IC50"
unit_of_measure = "nM"
numeric_value = 227


# evaluate next
IC50 in this record for CC(=O)N1CCC[C@]12CCCC[C@@](C)(C(=O)N[C@@H](CC(=O)O)C(=O)N[C@@H](CC(=O)O)C(=O)N[C@@H](C)C(=O)N[C@@H](C)C(=O)N[C@@H](Cc1ccccc1)C(=O)N[C@@H](CC(C)C)C(=O)NC(C)(C)C(=O)N[C@@H](Cc1ccsc1)C(=O)N[C@@H](Cc1csc3ccccc13)C(=O)N[C@@H](CCC(N)=O)C(N)=O)NC(=O)[C@H](CC(C)(C)C)NC(=O)[C@H](CC(=O)O)NC2=O [I-1983] : 186
